- TARGET_ENTITY: Recombinant human PKC-delta (His-tagged 345-676) (Homo sapiens, UniProt Q05655)
- Construct: PKC-delta (His-tagged 345-676); His
- Sequence (Q05655 345-676): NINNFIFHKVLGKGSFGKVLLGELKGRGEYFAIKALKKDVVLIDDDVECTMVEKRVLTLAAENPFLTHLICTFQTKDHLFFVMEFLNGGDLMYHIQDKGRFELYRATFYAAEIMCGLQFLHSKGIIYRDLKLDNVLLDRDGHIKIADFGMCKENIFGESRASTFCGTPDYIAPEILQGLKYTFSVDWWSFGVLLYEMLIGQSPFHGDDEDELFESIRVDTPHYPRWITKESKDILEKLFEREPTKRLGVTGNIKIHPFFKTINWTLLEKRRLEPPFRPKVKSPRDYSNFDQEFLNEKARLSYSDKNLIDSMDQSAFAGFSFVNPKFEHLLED
- EXPERIMENT_DESCRIPTION: PKC-delta inhibition assay (HTRF KinEASE kit)
- Format: biochemical
- RUN_CONDITIONS: ratio, PKC-theta vs PKC-delta HTRF
OBSERVATION_TYPE: PKC-theta/PKC-delta selectivity

# COMPOUND, TARGET_ENTITY, OBSERVED_RESULT
data = [
    ("CCC1(C)C(=O)Nc2nccc(-c3cc(Cl)cc(N4CCNC[C@H]4C)n3)c21 (stereo partly shown) [Example 146]", "Recombinant human PKC-delta (His-tagged 345-676) (Homo sapiens, UniProt Q05655)", 4),
    ("C[C@@H]1CN(c2cc(Cl)cc(-c3ccnc4c3C(C)(O)C(=O)N4)c2)CCN1 (stereo partly shown) [Example 76]", "Recombinant human PKC-delta (His-tagged 345-676) (Homo sapiens, UniProt Q05655)", 11),
    ("C[C@H]1CN(c2cc(C(F)(F)F)cc(-c3ccnc4c3C(C)(C)C(=O)N4)n2)CCN1 [Example 141]", "Recombinant human PKC-delta (His-tagged 345-676) (Homo sapiens, UniProt Q05655)", 16),
    ("CC1(O)C(=O)Nc2nccc(-c3cc(N4CCNCC4)ccc3F)c21 (stereo not shown) [Example 60]", "Recombinant human PKC-delta (His-tagged 345-676) (Homo sapiens, UniProt Q05655)", 4),
    ("CC1(C)C(=O)Nc2nccc(-c3cc(C(F)(F)F)cc(C4(CO)CCNC4)n3)c21 (stereo not shown) [Example 70]", "Recombinant human PKC-delta (His-tagged 345-676) (Homo sapiens, UniProt Q05655)", 30),
    ("CC1(C)C(=O)Nc2nccc(-c3cccc(C4(CN)COC4)c3)c21 [Example 44]", "Recombinant human PKC-delta (His-tagged 345-676) (Homo sapiens, UniProt Q05655)", 4),
    ("C[C@@H]1CN(c2cc(C(F)(F)F)cc(-c3ccnc4c3C(C)(C)C(=O)N4)n2)CCCN1 [Example 186]", "Recombinant human PKC-delta (His-tagged 345-676) (Homo sapiens, UniProt Q05655)", 22),
    ("C[C@H]1CNCCN1c1cc(C(F)(F)F)cc(-c2ccnc3c2C(C)(C)C(=O)N3)n1 [Example 101]", "Recombinant human PKC-delta (His-tagged 345-676) (Homo sapiens, UniProt Q05655)", 12),
    ("CC(F)(F)c1cc(-c2c(F)cnc3c2C(C)(C)C(=O)N3)nc(N2CCNCC2)c1 [Example 174]", "Recombinant human PKC-delta (His-tagged 345-676) (Homo sapiens, UniProt Q05655)", 10),
    ("C[C@@H]1CNCCN(c2cc(C(F)(F)F)cc(-c3ccnc4c3C(C)(C)C(=O)N4)n2)C1 [Example 182]", "Recombinant human PKC-delta (His-tagged 345-676) (Homo sapiens, UniProt Q05655)", 25),
    ("C[C@@]1(O)C(=O)Nc2nccc(-c3cc(Cl)cc(N4CCNCC(F)C4)n3)c21 (single isomer, unassigned) [Example 91]", "Recombinant human PKC-delta (His-tagged 345-676) (Homo sapiens, UniProt Q05655)", 6),
    ("C[C@@]1(O)C(=O)Nc2nccc(-c3cc(C(F)(F)F)cc(N4C[C@H]5CC[C@@H](C4)N5)n3)c21 (single isomer, unassigned) [Example 136]", "Recombinant human PKC-delta (His-tagged 345-676) (Homo sapiens, UniProt Q05655)", 11),
    ("CC1(C)C(=O)Nc2nccc(-c3cc(C(F)(F)F)cc(N4CC5CC(C4)N5)n3)c21 [Example 150]", "Recombinant human PKC-delta (His-tagged 345-676) (Homo sapiens, UniProt Q05655)", 13),
    ("C[C@H]1CNCCN1c1cc(F)cc(-c2ccnc3c2C(C)(C)C(=O)N3)c1 [Example 30]", "Recombinant human PKC-delta (His-tagged 345-676) (Homo sapiens, UniProt Q05655)", 2),
    ("CC1(C)C(=O)Nc2nccc(-c3cccc(N(CC4COC4)C4CCNCC4)c3)c21 [Example 41]", "Recombinant human PKC-delta (His-tagged 345-676) (Homo sapiens, UniProt Q05655)", 3),
    ("O=c1[nH]c2nccc(-c3cccc(N4CCNCC4)c3)c2o1 [Example 6]", "Recombinant human PKC-delta (His-tagged 345-676) (Homo sapiens, UniProt Q05655)", 2),
]
